For each record, write down the corresponding Firefly ERalpha transient, cmpd/DMSO (mean).
Molecular target: ERα (Homo sapiens, UniProt P03372)
Construct: expressed in transfected cells
Sequence (P03372 whole entry, species assumed): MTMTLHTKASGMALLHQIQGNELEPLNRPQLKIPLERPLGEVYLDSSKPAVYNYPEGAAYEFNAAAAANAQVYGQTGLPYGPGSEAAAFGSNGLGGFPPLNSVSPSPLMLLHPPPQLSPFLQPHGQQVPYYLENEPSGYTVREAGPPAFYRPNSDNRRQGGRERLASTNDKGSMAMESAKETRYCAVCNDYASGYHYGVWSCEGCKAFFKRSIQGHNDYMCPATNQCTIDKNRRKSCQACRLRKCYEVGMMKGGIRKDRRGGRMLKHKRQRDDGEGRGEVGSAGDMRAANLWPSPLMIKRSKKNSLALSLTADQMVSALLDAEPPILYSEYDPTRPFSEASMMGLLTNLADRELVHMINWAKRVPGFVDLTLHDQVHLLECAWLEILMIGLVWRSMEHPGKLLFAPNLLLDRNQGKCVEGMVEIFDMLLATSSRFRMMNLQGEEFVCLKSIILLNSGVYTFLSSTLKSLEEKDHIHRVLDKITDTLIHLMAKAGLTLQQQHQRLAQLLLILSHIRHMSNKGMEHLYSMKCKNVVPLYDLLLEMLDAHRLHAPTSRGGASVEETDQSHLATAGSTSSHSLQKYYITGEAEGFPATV
Assay: Counterscreening, Firefly signal with ERα transient transfection (Firefly_ERa)
Type: cell-based
Details: 2 uM
Numbers only.

Solved entries:
O=c1cccc2n1CC1CC2CN(c2nc(N3CCCC3)nc(N3CCCC3)n2)C1 (stereo not drawn) :: 1.0
CC1CCN(c2nc(N3CCC(C)CC3)nc(N3CCn4c(cccc4=O)C3)n2)CC1 :: 1.1
CCOC(=O)c1cnc2cc(C)c(C)cc2c1NCCCN(C)C :: 2.0
CCOC(=O)c1cnc2c(C)cc(C)cc2c1N1CCCC(N(C)C)C1 (stereo not drawn) :: 1.3

State recorded Firefly ERalpha transient, cmpd/DMSO (mean) for all listed compounds.
1. CNc1c(C#N)c(C(F)(F)F)nc2ccc(Oc3ccccc3)cc12
2. Cc1cc(C)c2ncc(C(=O)OC(C)C)c(NCCCN(C)C)c2c1
3. Cc1ccc(CCCNc2c(C#N)c(C(F)(F)F)nc3ccc(Oc4ccccc4)cc23)cc1

RESULT:
[1.0, 1.0, 1.5]

State recorded Firefly ERalpha transient, cmpd/DMSO (mean) for all listed compounds.
1. CCOC(=O)c1cnc2ccc(C)cc2c1NCCCN(C)C
2. COc1ccc2nc(C(F)(F)F)c(C#N)c(N3CCN(C)CC3)c2c1

RESULT:
[2.1, 0.9]

* * *

Target: NR2F6 (Homo sapiens, UniProt P10588)
Construct: expressed in transfected cells; also transient transfection
Sequence (P10588 1-404): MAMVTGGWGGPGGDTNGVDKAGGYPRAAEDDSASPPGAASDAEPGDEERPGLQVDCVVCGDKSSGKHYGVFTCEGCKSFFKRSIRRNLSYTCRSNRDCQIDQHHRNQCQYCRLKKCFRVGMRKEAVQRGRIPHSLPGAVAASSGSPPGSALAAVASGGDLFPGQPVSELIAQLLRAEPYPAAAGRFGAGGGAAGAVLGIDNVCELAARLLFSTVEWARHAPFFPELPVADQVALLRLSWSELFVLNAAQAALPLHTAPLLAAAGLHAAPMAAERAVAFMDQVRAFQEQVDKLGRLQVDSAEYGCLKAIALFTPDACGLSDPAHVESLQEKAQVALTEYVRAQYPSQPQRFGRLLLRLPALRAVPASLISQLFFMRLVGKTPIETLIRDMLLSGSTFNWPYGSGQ
Assay: NR2F6 agonist screening, Firefly signal cmpd/DMSO
Assay type: cell-based
Design: unit of the concentration uncertain
Settings: Concentration 40 (unit uncertain); NR2F6 full length
reported endpoint: Firefly NR2F6 full length, cmpd/DMSO (mean)
Numbers only.

Cc1cccn2cc(CNS(=O)(=O)c3ccccc3F)nc12 [Compound E52] :: 1.4
Cc1ccc(S(=O)(=O)NCc2cn3cccc(C)c3n2)cc1C [Compound E41] :: 0.9
COc1ccc(OC)c(S(=O)(=O)NCc2nc3nc(C)cc(C)n3n2)c1 [Compound E4] :: 1.0
Cc1ccc(S(=O)(=O)NCc2cn3ccccc3n2)c(C)c1 [Compound E24] :: 1.1
Cc1cc(C)c(S(=O)(=O)NCc2nc3nc(C)cc(C)n3n2)c(C)c1 [Compound E10] :: 1.1

State recorded Firefly NR2F6 full length, cmpd/DMSO (mean) for all listed molecules.
1. Cc1ccc(S(=O)(=O)N(Cc2nc3nc(C)c(S)c(C)n3n2)c2ccccc2)cc1 [Compound E57]
2. COc1ccc(Cl)cc1S(=O)(=O)NCc1nc2nc(C)cc(C)n2n1 [Compound E15]
3. COc1ccc(S(=O)(=O)NCc2nc3nc(C)cc(C)n3n2)cc1OC [Compound E8]

RESULT:
[0.9, 1.1, 0.9]

* * *

Molecular target: hCyt P450 (Homo sapiens)
Sequence (P05177 whole entry): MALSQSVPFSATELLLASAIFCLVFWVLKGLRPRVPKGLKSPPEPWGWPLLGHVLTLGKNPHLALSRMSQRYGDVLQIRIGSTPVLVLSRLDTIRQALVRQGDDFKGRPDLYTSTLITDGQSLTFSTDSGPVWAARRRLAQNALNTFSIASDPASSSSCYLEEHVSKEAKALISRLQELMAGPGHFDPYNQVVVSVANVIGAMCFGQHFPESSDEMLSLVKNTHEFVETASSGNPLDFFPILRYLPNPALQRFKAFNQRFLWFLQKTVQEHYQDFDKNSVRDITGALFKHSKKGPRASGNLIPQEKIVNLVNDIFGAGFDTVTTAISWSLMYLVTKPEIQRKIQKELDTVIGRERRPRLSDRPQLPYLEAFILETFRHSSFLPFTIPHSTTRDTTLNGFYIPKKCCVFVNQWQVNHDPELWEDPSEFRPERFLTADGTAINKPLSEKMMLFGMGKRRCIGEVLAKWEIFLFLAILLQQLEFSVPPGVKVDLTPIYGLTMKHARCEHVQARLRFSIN
reported endpoint: IC50

QUERY: So what's the measured IC50 for this one? COCCN[C@H]1CS(=O)(=O)C[C@@H]1S(=O)(=O)c1ccc(Cl)cc1 [Compound D136]
RESULT: > 10 µM

* * *

Target: NR2F6 (Homo sapiens)
Construct: expressed in transfected cells; also transient transfection
Sequence (P10588 1-404): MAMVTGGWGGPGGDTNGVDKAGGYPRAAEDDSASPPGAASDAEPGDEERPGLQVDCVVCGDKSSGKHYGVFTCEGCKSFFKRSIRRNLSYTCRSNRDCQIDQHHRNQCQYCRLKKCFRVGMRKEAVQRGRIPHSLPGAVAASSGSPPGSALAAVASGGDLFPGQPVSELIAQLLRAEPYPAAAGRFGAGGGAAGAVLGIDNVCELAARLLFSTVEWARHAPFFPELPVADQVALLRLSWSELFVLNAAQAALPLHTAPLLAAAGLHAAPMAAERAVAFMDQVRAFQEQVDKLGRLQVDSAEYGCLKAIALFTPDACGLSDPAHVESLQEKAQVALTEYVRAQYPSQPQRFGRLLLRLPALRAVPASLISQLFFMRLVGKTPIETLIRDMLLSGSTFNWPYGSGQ
Experiment: NR2F6 agonist screening, Firefly signal cmpd/DMSO
Format: cell-based
Details: Table 14; 2 uM
reported endpoint: Firefly F4, cmpd/DMSO (mean)
Numbers only.

Solved entries:
CCOC(=O)c1cnc2c(C)cc(C)cc2c1NCCCN(C)C :: 0.8
CCOC(=O)c1cnc2c(C)cccc2c1NCCCN(C)C :: 0.7
COC(=O)c1ccc2oc(=O)c(S(=O)(=O)c3ccccc3)cc2c1 :: 1.7
CCOC(=O)c1cnc2c(C)cc(C)cc2c1NCc1ccccc1 :: 0.7
Cc1ccc(NC(=O)c2noc3c2CCC3)cc1C :: 1.2

State recorded Firefly F4, cmpd/DMSO (mean) for all listed compounds.
1. CCOC(=O)c1cnn2c(-c3ccc(Cl)cc3)ccnc12
2. CCc1cc(C(=O)Nc2ccn(Cc3ccc(C)cc3)n2)no1

RESULT:
1.1
1.4

* * *

System: Renilla_ERa
Test: Renilla signal in ERα counterscreen (Renilla_ERa)
Assay type: cell-based
Settings: 10 uM; read-out: Renilla ERalpha transient, cmpd/DMSO (mean)
For each record, write down the corresponding fold induction at 10 µM.
Give bare numbers.

Solved entries:
Cc1cc(C)c2ncc(C(=O)OC(C)C)c(NCCCN(C)C)c2c1 [Compound Z29] :: 1.2
Cc1cc(C)c2ncc(C(=O)O)c(NCCCN(C)C)c2c1 [Compound Z28] :: 1.3
O=c1cccc2n1CC1CC2CN(c2nc(Cl)nc(NCCN3CCOCC3)n2)C1 (stereo not drawn) [Compound 27] :: 1.1
COc1nc(NCCC2=CCCCC2)nc(N2CC3CC(C2)c2cccc(=O)n2C3)n1 (stereo not drawn) [Compound 38] :: 1.1
COC(=O)c1[nH]c2c(c(C(F)(F)F)nc3ccc(OC)cc32)c1N [Compound Z47] :: 1.4
CC1CCN(c2nc(NCCN3CCOCC3)nc(N3CC4CC(C3)c3cccc(=O)n3C4)n2)CC1 (stereo not drawn) [Compound 43] :: 1

State recorded fold induction at 10 µM for all listed compounds.
1. N#CC1=C(N)n2nc(-c3ccccc3)cc2NC1(c1ccc(N2CCOCC2)cc1)C(F)(F)F (stereo not drawn) [Compound Z49]
2. N#Cc1c(C(F)(F)F)nc2ccc(Cl)cc2c1NC1CC1 [Compound Z48]
3. CCOC(=O)c1cnc2c(C)cc(C)cc2c1N1CCCC(N(C)C)C1 (stereo not drawn) [Compound Z27]

RESULT:
1. 0.7
2. 0.8
3. 1.2

* * *

Assay: pH solubility
Type: physicochemical
Details: aqueous buffer; pH 4; OD 250 nm
reported endpoint: solubility

QUERY: So what's the measured solubility for this one? COCCN[C@H]1CS(=O)(=O)C[C@@H]1S(=O)(=O)c1ccc(Cl)cc1
RESULT: 220 µg/mL

* * *

System: HEK293 pGL4
Assay: Firefly_pGL signal, cmpd/DMSO (pGL4 control cells)
Format: cell-based
Settings: Homo sapiens, HEK293, 0.5 uM; read-out: Firefly pGL4, cmpd/DMSO (mean)
For each record, write down the corresponding fold induction at 0.5 µM.
Give bare numbers.

Solved entries:
COCCN[C@H]1CS(=O)(=O)C[C@@H]1S(=O)(=O)c1ccc(Cl)cc1 :: 1.1
O=S1(=O)C[C@H](NCc2ccco2)[C@@H](S(=O)(=O)c2cccs2)C1 :: 1
CC(C)OCCCN[C@H]1CS(=O)(=O)C[C@@H]1S(=O)(=O)c1ccc(Cl)cc1 :: 0.9
O=S1(=O)C[C@H](NCC2CCCO2)[C@@H](S(=O)(=O)c2cccs2)C1 (stereo partly shown) :: 1
O=S1(=O)C[C@H](N2CCCC2)[C@@H](S(=O)(=O)c2cccs2)C1 :: 1.2

State recorded fold induction at 0.5 µM for all listed compounds.
1. CC(C)CCN[C@H]1CS(=O)(=O)C[C@@H]1S(=O)(=O)c1ccc(Cl)cc1
2. O=S1(=O)C[C@H](NCCCc2ccccc2)[C@@H](S(=O)(=O)c2ccc(Cl)cc2)C1

RESULT:
[1, 0.8]

* * *

For each record, write down the corresponding Firefly, cmpd/DMSO repeat 1.
Biological target: NR2F6 (Homo sapiens, UniProt P10588)
Construct: expressed in transfected cells; also transient transfection
Experiment: NR2F6 agonist screening, Firefly signal cmpd/DMSO
Type: cell-based
Settings: C11 analogs follow set (Tables 2-10), repeat 1
Answers are plain numbers.

State recorded Firefly, cmpd/DMSO repeat 1 for all listed molecules.
1. COc1ccc2cc(S(=O)(=O)c3cc(C)cc(C)c3)c(=O)oc2c1 [Compound C260]
2. Cc1cc(C)cc(S(=O)(=O)c2cc3cc(F)ccc3oc2=O)c1 [Compound C190]
3. COc1ccc(NC(=O)c2ccc3oc(=O)c(S(=O)(=O)c4ccc(F)cc4)cc3c2)cc1 [Compound C179]
4. CC(C)c1ccc(S(=O)(=O)c2cc3cc(Cl)ccc3oc2=O)cc1 [Compound C140]

RESULT:
1: 1.0; 2: 2.1; 3: 8.7; 4: 12.8
